Values from patent US12428423B2

Here, each record is paired with measured pIC50 data.
- experimental.target: CDK4/cyclin D1 (Homo sapiens (Human))
- protocol.notes: Biochemical kinase inhibitory assay, CDK4/cyclin D1
- condition.info: recombinant CDK4/cyclin D1; in the presence of 10 μM ATP
pIC50: −log10 of the molar value. Counter-ions that a name gives are not always drawn.

Cc1cc(Nc2ncc3cc(C)c4ncn(C(C)C)c4c3n2)ncc1N1CCNCC1
8.00 to 8.70
Cc1cc(Nc2ncc3ccc4ncn(C5CCCC5)c4c3n2)ncc1N1CCOCC1
8.00 to 8.70
CC(C)n1cnc2ccc3cnc(Nc4ccc(N5CC6(CNC6)C5)cn4)nc3c21
7.30 to 8.00
CC(C)n1cnc2ccc3cnc(Nc4ccc(N5CCC(N(C)C)CC5)cn4)nc3c21
7.30 to 8.00
CC(C)n1cnc2ccc3cnc(Nc4ccc(N5CCNCC5)cn4)nc3c21 [Compound I-1, hydrochloride]
> 8.70
Cc1nc(Nc2ncc3ccc4ncn(C5CCC5)c4c3n2)ccc1N1CCNCC1
7.30 to 8.00

Task item: Identify measured pIC50 obtained with CDK4/cyclin D1 (Homo sapiens (Human)) for CC(C)n1cnc2ccc3cnc(Nc4ccc(N5CCC(CCCO)CC5)cn4)nc3c21 .
Reply: 7.30 to 8.00

Task item: Identify measured pIC50 obtained with CDK4/cyclin D1 (Homo sapiens (Human)) for Cc1cc2ncn(C(C)C)c2c2nc(Nc3ccc(N4CCOCC4)cn3)ncc12 .
Reply: 7.00 to 7.30

###

- experimental.target: CDK4/cyclin D1 (Homo sapiens (Human))
- protocol.notes: Biochemical kinase inhibitory assay, CDK4/cyclin D1
- condition.info: recombinant CDK4/cyclin D1; in the presence of 10 μM ATP
observation.type: IC50

CC(C)n1cnc2ccc3cnc(Nc4ccc(N5CCN(CCO)CC5)cn4)nc3c21
10 to 50 nM
Cc1cc2ncn(C(C)C)c2c2nc(Nc3ccc(N4CCOC(C)C4)cn3)ncc12 (centres unmarked)
50 to 100 nM
CCN1CCN(c2cnc(Nc3ncc4ccc5ncn(C(C)C)c5c4n3)cc2C)CC1
2 to 10 nM
CC(C)n1cnc2ccc3cnc(Nc4ccc(N5CCNC(C)(C)C5)cn4)nc3c21
2 to 10 nM
c1cc(Nc2ncc3ccc4ncn(C5CCCC5)c4c3n2)ncc1N1CCNCC1
< 2 nM
Cc1nc(Nc2ncc3ccc4ncn(C(C)C)c4c3n2)ccc1N1CCOCC1
2 to 10 nM
CC(C)N1CCN(c2ccc(Nc3ncc4ccc5ncn(C(C)C)c5c4n3)nn2)CC1
50 to 100 nM

We next turn to a different compound, shown below.
Task item: # return recorded IC50 for input Cc1cc(Nc2ncc3ccc4ncn(C(C)C)c4c3n2)ncc1N1CCN(C)CC1
Reply: 2 to 10 nM

###

- experimental.target: CDK4/cyclin D1 (Homo sapiens (Human), UniProt P11802)
- Sequence (P11802 whole entry): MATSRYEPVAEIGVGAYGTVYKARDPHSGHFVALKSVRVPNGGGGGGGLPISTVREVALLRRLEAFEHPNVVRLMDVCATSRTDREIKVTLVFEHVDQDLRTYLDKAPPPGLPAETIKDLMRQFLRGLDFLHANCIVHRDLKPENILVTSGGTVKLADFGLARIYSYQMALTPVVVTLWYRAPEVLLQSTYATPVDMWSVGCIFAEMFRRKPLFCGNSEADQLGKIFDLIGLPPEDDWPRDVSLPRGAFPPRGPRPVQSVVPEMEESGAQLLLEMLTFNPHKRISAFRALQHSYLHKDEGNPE
- Sequence (P24385 whole entry partner): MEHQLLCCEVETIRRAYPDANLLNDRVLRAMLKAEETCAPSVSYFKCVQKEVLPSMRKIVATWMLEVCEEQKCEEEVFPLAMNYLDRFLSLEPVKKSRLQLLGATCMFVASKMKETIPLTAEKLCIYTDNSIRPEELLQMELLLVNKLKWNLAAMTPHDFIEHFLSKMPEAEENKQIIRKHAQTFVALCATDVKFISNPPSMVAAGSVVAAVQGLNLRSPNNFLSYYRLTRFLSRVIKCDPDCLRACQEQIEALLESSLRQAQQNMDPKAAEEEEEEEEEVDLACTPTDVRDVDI
- protocol.notes: Biochemical kinase inhibitory assay, CDK4/cyclin D1
- condition.info: recombinant CDK4/cyclin D1; in the presence of 10 μM ATP
pIC50: −log10 of the molar value.
observation.type: pIC50

# example entries with known answers
CC(C)n1cnc2ccc3cnc(Nc4ccc(N5CCC6(CCNCC6)C5)cn4)nc3c21
7.30 to 8.00
c1cc(Nc2ncc3ccc4ncn(C5CCC5)c4c3n2)ncc1N1CCOCC1
7.30 to 8.00
Cc1cc(Nc2ncc3ccc4ncn(C(C)C)c4c3n2)ncc1N1CCOCC1
8.00 to 8.70
Cc1cc(Nc2ncc3ccc4ncn(C5CCC5)c4c3n2)ncc1N1CCNCC1
7.30 to 8.00
CC1CN(c2ccc(Nc3ncc4ccc5ncn(C(C)C)c5c4n3)nc2)CCO1 (centres unmarked)
8.00 to 8.70

Task item: # return recorded pIC50 for input Cc1cc(Nc2ncc3ccc4ncn(C5CCCC5)c4c3n2)ncc1N1CCNCC1
Reply: 8.00 to 8.70

Task item: # return recorded pIC50 for input COc1cc(OC2CCN(C)CC2)ccc1Nc1ncc2ccc3ncn(C(C)C)c3c2n1
Reply: 7.00 to 7.30

Task item: # return recorded pIC50 for input Cc1nc(Nc2ncc3cc(C)c4ncn(C(C)C)c4c3n2)ccc1N1CCNCC1
Reply: 8.00 to 8.70

###

- experimental.target: CDK6/cyclin D1 (Homo sapiens (Human), UniProt Q00534)
- Sequence (Q00534 whole entry, one chain of several): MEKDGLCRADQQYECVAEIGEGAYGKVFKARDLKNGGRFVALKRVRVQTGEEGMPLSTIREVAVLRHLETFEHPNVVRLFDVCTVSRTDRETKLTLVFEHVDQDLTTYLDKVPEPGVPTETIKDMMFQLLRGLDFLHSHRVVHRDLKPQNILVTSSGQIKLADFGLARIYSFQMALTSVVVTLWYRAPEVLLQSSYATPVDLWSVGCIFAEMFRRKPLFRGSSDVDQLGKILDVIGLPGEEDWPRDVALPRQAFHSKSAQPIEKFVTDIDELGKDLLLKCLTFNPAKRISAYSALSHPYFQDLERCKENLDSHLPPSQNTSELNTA
- protocol.notes: Biochemical kinase inhibitory assay, CDK6/cyclin D1
- condition.info: in the presence of 10 μM ATP
Here, each record is paired with measured IC50 data.

CCN1CCN(c2cnc(Nc3ncc4ccc5ncn(C(C)C)c5c4n3)cc2C)CC1
2 to 10 nM
Cc1cc(Nc2ncc3cc(C)c4ncn(C(C)C)c4c3n2)ncc1N1CCOCC1
10 to 50 nM
CC(C)n1cnc2c(Br)cc3cnc(Nc4ccc(N5CCNCC5)cn4)nc3c21
2 to 10 nM
CC(C)n1cnc2ccc3cnc(Nc4ccc(N5CCC6(CC5)CNC6)cn4)nc3c21
10 to 50 nM

Task item: # return recorded IC50 for input Cc1cc(Nc2ncc3cc(C)c4ncn(C(C)C)c4c3n2)ncc1N1CCNCC1
Reply: 2 to 10 nM

Task item: # return recorded IC50 for input Cc1cc2ncn(C(C)C)c2c2nc(Nc3ccc(N4CCNCC4)cn3)ncc12
Reply: 50 to 100 nM

Task item: # return recorded IC50 for input CC(C)n1cnc2ccc3cnc(Nc4ccc(N5CCCCC5)cn4)nc3c21
Reply: 10 to 50 nM

Task item: # return recorded IC50 for input COc1cc(C(=O)NC2CCN(C)CC2)ccc1Nc1ncc2ccc3ncn(C(C)C)c3c2n1
Reply: 50 to 100 nM

###

- experimental.target: CDK6/cyclin D1 (Homo sapiens (Human))
- protocol.notes: Biochemical kinase inhibitory assay, CDK6/cyclin D1
- condition.info: in the presence of 10 μM ATP
Here, each record is paired with measured IC50 data.

Cc1cc(Nc2ncc3c(C)cc4ncn(C(C)C)c4c3n2)ncc1N1CCNCC1 [Compound I-63]
50 to 100 nM
CC(C)n1cnc2ccc3cnc(Nc4ccc(N5CCC(CCCO)CC5)cn4)nc3c21 [Compound I-18]
10 to 50 nM
CC(C)N1CCN(c2ccc(Nc3ncc4ccc5ncn(C(C)C)c5c4n3)nn2)CC1 [Compound I-41]
50 to 100 nM
Cc1cc(Nc2ncc3ccc4ncn(C5CC5)c4c3n2)ncc1N1CCNCC1 [Compound I-48]
10 to 50 nM
CC(C)n1cnc2ccc3cnc(Nc4ccc(N5CCC(N)CC5)cn4)nc3c21 [Compound I-21]
10 to 50 nM

Task item: # return recorded IC50 for input Cc1cc2ncn(C(C)C)c2c2nc(Nc3ccc(N4CCOC(C)C4)cn3)ncc12 (centres unmarked) [Compound I-66]
Reply: 50 to 100 nM

Task item: # return recorded IC50 for input Cc1cc2cnc(Nc3ccc(N4CCNCC4)cn3)nc2c2c1ncn2C(C)C [Compound I-72]
Reply: 2 to 10 nM

Task item: # return recorded IC50 for input CC(C)n1cnc2ccc3cnc(Nc4ccc(N5CC6(CNC6)C5)cn4)nc3c21 [Compound I-30]
Reply: 10 to 50 nM

###

- experimental.target: CDK4/cyclin D1 (Homo sapiens (Human), UniProt P11802)
- protocol.notes: Biochemical kinase inhibitory assay, CDK4/cyclin D1
- condition.info: recombinant CDK4/cyclin D1; in the presence of 10 μM ATP
Here, each record is paired with measured IC50 data.

CC(C)n1cnc2ccc3cnc(Nc4ccc(N5CC6(CCNCC6)C5)cn4)nc3c21 [Compound I-32]
10 to 50 nM
CC(C)n1cnc2ccc3cnc(Nc4ccc(N5CCNCC5)cc4F)nc3c21 [Compound I-35]
10 to 50 nM

We next turn to a different compound, shown below.
Task item: # return recorded IC50 for input CC(C)n1cnc2c(Br)cc3cnc(Nc4ccc(N5CCNCC5)cn4)nc3c21 [Compound I-67]
Reply: 2 to 10 nM

###

- experimental.target: CDK6/cyclin D1 (Homo sapiens (Human), UniProt Q00534)
- protocol.notes: Biochemical kinase inhibitory assay, CDK6/cyclin D1
- condition.info: in the presence of 10 μM ATP
Here, each record is paired with measured IC50 data.

# example entries with known answers
CC(C)n1cnc2c(Br)cc3cnc(Nc4ccc(N5CCC6(CC5)CNC6)cn4)nc3c21
10 to 50 nM
CCn1cnc2ccc3cnc(Nc4ccc(N5CCOCC5)cn4)nc3c21
10 to 50 nM
COc1ccc2cc(Nc3ncc4ccc5ncn(C(C)C)c5c4n3)ccc2n1
50 to 100 nM
c1cc(Nc2ncc3ccc4ncn(C5CCCC5)c4c3n2)ncc1N1CCNCC1
< 2 nM
CC(C)n1cnc2ccc3cnc(Nc4ccc(N5C[C@@H](C)N[C@@H](C)C5)cn4)nc3c21
2 to 10 nM
Cc1cc(Nc2ncc3cc(Br)c4ncn(C(C)C)c4c3n2)ncc1N1CCNCC1
2 to 10 nM
Cc1nc(Nc2ncc3ccc4ncn(C5CCCC5)c4c3n2)ccc1N1CCNCC1
2 to 10 nM
Cc1nc(Nc2ncc3c(C)cc4ncn(C(C)C)c4c3n2)ccc1N1CCNCC1
50 to 100 nM
CC(C)n1cnc2ccc3cnc(Nc4ccc(N5CCC(CCCO)CC5)cc4)nc3c21
10 to 50 nM
CC(C)n1cnc2ccc3cnc(Nc4ccc(N5CCC6(CCC(=O)N6)CC5)cn4)nc3c21
10 to 50 nM

Task item: # return recorded IC50 for input Cc1cc2ncn(C(C)C)c2c2nc(Nc3ccc(N4CCOCC4)cn3)ncc12
Reply: 50 to 100 nM

Task item: # return recorded IC50 for input CC(C)n1cnc2ccc3cnc(Nc4ccc(N5CCN(CCO)CC5)cn4)nc3c21
Reply: 10 to 50 nM

Task item: # return recorded IC50 for input Cc1nc(Nc2ncc3cc(Br)c4ncn(C(C)C)c4c3n2)ccc1N1CCNCC1
Reply: 2 to 10 nM

Task item: # return recorded IC50 for input CC(C)n1cnc2ccc3cnc(Nc4ccc(N5CCN[C@@H](C)C5)cn4)nc3c21
Reply: 2 to 10 nM
